Value source: ChEMBL document CHEMBL4354832

- EXPERIMENT DESCRIPTION: Solubility of compound in FaSSIF incubated for 48 to 72 hrs under shaking conditions by LCMS analysis
- Format: physicochemical
PROPERTY NAME: solubility thermodynamic

# COMPOUND, OBSERVED MEASUREMENT
measured = [
    ("C=CC(=O)N1CCN(c2nc(=O)n(-c3ccccc3C(C)C)c3cc(-c4c(C)ccc5[nH]ncc45)c(Cl)cc23)CC1", "218 µM"),
    ("C=CC(=O)N1CCN(c2nc(=O)n(-c3ccccc3C(C)C)c3cc(-c4c(O)cccc4F)c(Cl)cc23)CC1", "191 µM"),
    ("C=CC(=O)N1CCN(c2nc(=O)n(-c3c(C)cccc3C(C)C)c3nc(-c4c(O)cccc4F)c(Cl)cc23)[C@@H](C)C1", "204 µM"),
    ("C=CC(=O)N1CCN(c2nc(=O)n(-c3c(C)ncnc3C(C)C)c3nc(-c4c(O)cccc4F)c(Cl)cc23)[C@@H](C)C1", "500 µM"),
    ("C=CC(=O)N1CCN(c2nc(=O)n(-c3ccccc3C(C)C)c3cc(-c4ccccc4F)c(Cl)cc23)[C@@H](C)C1", "260 µM"),
    ("C=CC(=O)N1CCN(c2nc(=O)n(-c3c(C(C)C)ccnc3C)c3nc(-c4c(O)cccc4F)c(Cl)cc23)[C@@H](C)C1", "435 µM"),
    ("C=CC(=O)N1CCN(c2nc(=O)n(-c3ccccc3C(C)C)c3nc(-c4c(O)cccc4F)c(Cl)cc23)[C@@H](C)C1 (stereo in doubt; (R)-18)", "184 µM"),
    ("C=CC(=O)N1CCN(c2nc(=O)n(-c3ccccc3C(C)C)c3cc(-c4cc(O)cc5ccccc45)c(Cl)cc23)CC1", "71 µM"),
    ("C=CC(=O)N1CCN(c2nc(=O)n(-c3c(C)ccnc3C(C)C)c3nc(-c4c(O)cccc4F)c(F)cc23)[C@@H](C)C1", "492 µM"),
    ("C=CC(=O)N1CCN(c2nc(=O)n(-c3ccccc3C(C)C)c3nc(-c4ccccc4O)c(Cl)cc23)[C@@H](C)C1", "299 µM"),
    ("C=CC(=O)N1CCN(c2nc(=O)n(-c3ccccc3C(C)C)c3nc(-c4ccccc4F)c(Cl)cc23)[C@@H](C)C1", "224 µM"),
    ("C=CC(=O)N1CCN(c2nc(=O)n(-c3ccccc3C(C)C)c3cc(-c4ccccc4Cl)c(Cl)cc23)[C@@H](C)C1", "255 µM"),
    ("C=CC(=O)N1CCN(c2nc(=O)n(-c3ccccc3C(C)C)c3cc(-c4c(O)cccc4F)c(Cl)cc23)[C@@H](C)C1", "226 µM"),
    ("C=CC(=O)N1CCN(c2nc(=O)n(-c3c(C(C)C)ccnc3C)c3nc(-c4c(O)cccc4F)c(F)cc23)[C@@H](C)C1", "477 µM"),
]
